# System: HEK-293T
# experiment-summary: Incucyte cell viability with HEK293T; note: unitless GR value; below 1 slowed growth and below 0 cell loss
# Assay type: toxicity, cell-based
# condition-info: human, 6 h, 10 µM, compound concentration 10 uM, replicate number 2
Attribute: Growth Rate
Give only the figure.

// query Request the reported Growth Rate associated with Oc1cc2c(cc1O)CN(C(=S)NCCc1ccc(Cl)cc1)CCC2 [CAPSAZEPINE]
// result -0.37

// query Which Growth Rate value is on record for "Cl.Cl.NC1(c2ccc(-c3nc4ccn5c(=O)[nH]nc5c4cc3-c3ccccc3)cc2)CCC1" ?
// result -0.68

// query So what does the record say about Growth Rate for "Cn1c(Nc2c(Cl)cccc2Cl)nc2ccc3nc[nH]c(=O)c3c21" ?
// result 0.03

// query Any idea what its Growth Rate is? The compound is CC(C)(C)c1cnc(CSc2cnc(NC(=O)C3CCN(CC(=O)NCCOCCOCCOCCNc4cccc5c4C(=O)N(C4CCC(=O)NC4=O)C5=O)CC3)s2)o1 (stereo unspecified)
// result -0.74

// query So what's the measured Growth Rate for this one? "COc1cnccc1Nc1nc(-c2nn(Cc3c(F)cc(OCCO)cc3F)c3ccccc23)ncc1OC"
// result -0.05

New cases:
// query // Growth Rate lookup, key: COc1cc(N[C@@H]2CCCC[C@]2(O)C(F)(F)F)ccc1F [BAY-9897]
// result 0.88

// query Can you look up the measured Growth Rate of "CN[C@@H](C)C(=O)N[C@H]1CCCC[C@H]2CC[C@@H](C(=O)N[C@@H](c3ccccc3)c3cn(CCCCc4ccc(CCCCn5cc([C@@H](NC(=O)[C@@H]6CC[C@@H]7CCCC[C@H](NC(=O)[C@H](C)NC)C(=O)N76)c6ccccc6)nn5)cc4)nn3)N2C1=O" for me?
// result 0.99

// query Any idea what Growth Rate was measured for CNCc1ccc(-c2cc(-c3nc(-c4ccc(S(=O)(=O)C(C)C)cc4)cnc3N)on2)cc1 [BERZOSERTIB] ?
// result -0.05

// query Data request, read-out Growth Rate, for CCO[C@@H](Cc1ccc(OCCc2ccc(OS(C)(=O)=O)cc2)cc1)C(=O)O [TESAGLITAZAR]
// result 0.96

// query Fill blank: measured Growth Rate of the compound "CC(C)c1ccc(/C=N/NC(=O)c2ccc(O)cc2)cc1" is ____.
// result 0.04

// query So what does the record say about Growth Rate for C=CC(=O)Nc1cc(-c2nn(C3CCC(N4CCN(C(C)=O)CC4)CC3)c3ncnc(N)c23)ccc1Oc1ccccc1 (stereo unspecified) ?
// result -0.92

// query Item "CN(C(=O)c1ccccc1)c1ccc2c(c1)nc(NC(=O)c1ccc(Br)s1)n2CCC(N)=O" has what recorded Growth Rate?
// result 0.04

// query So what does the record say about Growth Rate for CC[C@H](Nc1c(C#N)c(-c2ccc(-c3cccc(C)c3F)cc2)nc2cnccc12)C(=O)O [BAY-0361] ?
// result 0.74

// query For the compound CC(=O)Nc1nc2c(Oc3cc(-c4ccc(C(F)(F)F)cc4)ncn3)cccc2s1 [AMG-517] , what Growth Rate is on record?
// result 0.69

// query Growth Rate value for entry "Cc1ccc(S(=O)(=O)Nc2ccc(-n3nc(C(F)(F)F)cc3C(F)(F)F)cc2)cc1"
// result 0.63

// query Growth Rate lookup needed for C[C@@H](C(N)=O)[C@H](N)c1nc2cc(C(C)(C)C)ccc2[nH]1 [PF-06305591] , thanks.
// result 0.51

Recorded values, source ChEMBL document CHEMBL5303304.
